FYI, the data here is from paper PMC7156458.

Target: Aβ42 (Homo sapiens, UniProt P05067)
Sequence (P05067 672-713): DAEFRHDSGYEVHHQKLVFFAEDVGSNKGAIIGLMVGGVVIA
Assay: Th-T (thioflavin-T) assay of Aβ42 aggregation
Assay type: biochemical
Conditions: reading M119; compound at 10 (head suffix _10)
Answer -1 if Th-T fluorescence, mean of three wells (Fig. 7a) is under 2, and 1 if it is 2 or more.

Use the examples below as a reference point.
C=C1CC[C@@H]2[C@](C)(CC[C@H]3O[C@H](C=C(C)C)C[C@@]23C)[C@@H]1Cc1c(OC)oc(CO)c(C)c1=O; 1
C=C1CCC2C(C)(CCC=C(C)C)C(O)CCC2(C)C1Cc1c(OC)oc(C)c(C(=O)OC)c1=O (centres unmarked); 1
C=C1CCC2C(C)(CCC=C(C)C)C(O)CCC2(C)C1Cc1c(OC)oc(CO)c(C(=O)OC)c1=O (centres unmarked); -1
C=C1CC[C@@H]2[C@](C)(CC[C@H]3O[C@H](C=C(C)C)C[C@@]23C)[C@@H]1Cc1c(OC)oc(CO)c(C(=O)OC)c1=O; -1

Now turn to the next molecule.
// query Say whether C=C1CCC2C(C)(CCC=C(C)C)C(O)CCC2(C)C1Cc1c(OC)oc(CO)c(C)c1=O (centres unmarked) shows Th-T fluorescence, mean of three wells (Fig. 7a) of 2 or more.
// result 1

----------
Biological target: UniProt:P05067
Experiment: Th-T (thioflavin-T) assay of Aβ42 aggregation
Assay type: biochemical
Conditions: column suffix _10; reading M13
measurement-kind: Th-T assay signal, mean of three wells (Fig. 7a)
Numbers only.

Please review the following examples before continuing.
C=C1CC[C@@H]2[C@](C)(CC[C@H]3O[C@H](C=C(C)C)C[C@@]23C)[C@@H]1Cc1c(OC)oc(CO)c(C(=O)OC)c1=O [Compound 21]; 0.2193
C=C1CCC2C(C)(CCC=C(C)C)C(O)CCC2(C)C1Cc1c(OC)oc(C)c(C(=O)OC)c1=O (centres unmarked) [Compound 14]; 0.6552
C=C1CC[C@@H]2[C@](C)(CC[C@H]3O[C@H](C=C(C)C)C[C@@]23C)[C@@H]1Cc1c(OC)oc(CO)c(C)c1=O [Compound 20]; 1.108

Batch request: Th-T assay signal, mean of three wells (Fig. 7a) for each of the following molecules.
1. C=C1CCC2C(C)(CCC=C(C)C)C(O)CCC2(C)C1Cc1c(OC)oc(CO)c(C(=O)OC)c1=O (centres unmarked) [Compound 13]
2. C=C1CCC2C(C)(CCC=C(C)C)C(O)CCC2(C)C1Cc1c(OC)oc(CO)c(C)c1=O (centres unmarked) [Compound 12]

// result
1. 0.2301
2. 1.089

----------
For each of the compounds below, state its viability at 1 µM.
Assay: cytotoxicity in Drosophila DL1 cells
Assay type: cell-based
Details: Drosophila, DL1 cells (embryonic macrophage-derived), DL1 cells, 1 µM, replicate 1, relative to DMSO 1%; read-out: % viability, viability 1
Report as: number unit

C=C1CC[C@H]2[C@]3(C)C[C@H](C=C(C)C)O[C@H]3CC[C@]2(C)[C@@H]1Cc1c(OC)oc(C)c(C)c1=O [Compound 24]; 8.66%
C=C1CCC2C(C)(CCC=C(C)C)C(O)CCC2(C)C1Cc1c(OC)oc(C)c(C(=O)OC)c1=O (stereo not drawn) [Compound 14]; 10.1%
C=C1CCC2C(C)(CCC=C(C)C)C(O)CCC2(C)C1Cc1c(OC)oc(CO)c(C)c1=O (stereo not drawn) [Compound 12]; 8.66%
C=C1CC[C@H]2[C@]3(C)C[C@@H](C=C(C)C)O[C@H]3CC[C@]2(C)[C@@H]1Cc1c(O)c(C)c(C)oc1=O [Compound 5, subglutinol A]; 3.62%
C=C1CC[C@H]2[C@]3(C)C[C@H](C=C(C)C)O[C@H]3CC[C@]2(C)[C@@H]1Cc1c(O)c(C)c(C)oc1=O [Compound 6, subglutinol B]; 7.67%

// query For C=C1CCC2C3(C)CC(C=C(C)C)OC3CCC2(C)C1Cc1c(OC)oc(C)c(C)c1=O (stereo not drawn) [Compound 23] , what is its reported viability at 1 µM?
// result 7.72%

----------
Biological target: UniProt P05067
Experiment: Th-T (thioflavin-T) assay of Aβ42 aggregation
Type: biochemical
Settings: time-course reading M105; Supplementary Fig. 47 source data
measurement-kind: Th-T fluorescence, mean of three wells
Give bare numbers.

Some compounds with recorded Th-T fluorescence, mean of three wells:
C=C1CCC2C(C)(CCC=C(C)C)C(O)CCC2(C)C1Cc1c(O)c(C)c(C)oc1=O (stereo not shown) [Compound 9, higginsianin B]; 2.8016
CC(C)=CCC/C(C)=C/CC/C(C)=C/CC/C(C)=C/Cc1c(O)c(C)c(C)oc1=O [Compound 2]; 2.946
C=C1CC[C@@H]2[C@](C)(CC[C@H]3O[C@H](C=C(C)C)C[C@@]23C)[C@@H]1Cc1c(O)c(C)c(C)oc1=O [Compound 10, higginsianin A]; 3.041

# context switch: different compound, same Th-T fluorescence, mean of three wells
// query So what's the measured Th-T fluorescence, mean of three wells for this one? C=C1CCC2C(C)(CCC=C(C)C)C(O)CCC2(C)C1Cc1c(O)c(C)c(C)oc1=O (stereo not shown) [Compound 4]
// result 2.776

----------
Biological target: Aβ42 (Homo sapiens, UniProt P05067)
Assay: Th-T (thioflavin-T) assay of Aβ42 aggregation
Assay type: biochemical
Details: compound at 50; reading M55 of time course
measurement-kind: Th-T fluorescence, mean of three wells
Answers are plain numbers.

C=C1CCC2C(C)(CCC=C(C)C)C(O)CCC2(C)C1Cc1c(OC)oc(CO)c(C(=O)OC)c1=O (centres unmarked); 0.4661
C=C1CC[C@@H]2[C@](C)(CC[C@H]3O[C@H](C=C(C)C)C[C@@]23C)[C@@H]1Cc1c(OC)oc(CO)c(C(=O)OC)c1=O; 0.2197
C=C1CC[C@@H]2[C@](C)(CC[C@H]3O[C@H](C=C(C)C)C[C@@]23C)[C@@H]1Cc1c(OC)oc(CO)c(C)c1=O; 2.09

Give one value of Th-T fluorescence, mean of three wells per listed compound.
1. C=C1CCC2C(C)(CCC=C(C)C)C(O)CCC2(C)C1Cc1c(OC)oc(C)c(C(=O)OC)c1=O (centres unmarked)
2. C=C1CCC2C(C)(CCC=C(C)C)C(O)CCC2(C)C1Cc1c(OC)oc(CO)c(C)c1=O (centres unmarked)

// result
1. 4.689
2. 1.456

----------
Assay: cytotoxicity in Drosophila DL1 cells
Assay type: cell-based
Details: Drosophila, DL1 cells (embryonic macrophage-derived), DL1 cells, 1 µM, replicate 2, relative to DMSO 1%; read-out: % viability, viability 2
measurement-kind: viability at 1 µM (%)
Give bare numbers, in %.

Some compounds with known viability at 1 µM results, for comparison:
C=C1CCC2C(C)(CCC=C(C)C)C(O)CCC2(C)C1Cc1c(OC)oc(CO)c(C)c1=O (stereo not drawn); 7.51
C=C1CCC2C(C)(CCC=C(C)C)C(=O)CCC2(C)C1Cc1c(O)c(C)c(C)oc1=O (stereo not drawn); 131

Shift focus to the following entry.
// query # viability at 1 µM lookup, item C=C1CCC2C(C)(CCC=C(C)C)C(O)CCC2(C)C1Cc1c(OC)oc(CO)c(C(=O)OC)c1=O (stereo not drawn)
// result 9.84

----------
Target: Aβ42 (Homo sapiens)
Assay: Th-T (thioflavin-T) assay of Aβ42 aggregation
Type: biochemical
Conditions: Aβ42 aggregation time course, reading M118
measurement-kind: Th-T fluorescence, mean of three wells
One number for each entry.

C=C1CCC2C(C)(CCC=C(C)C)C(O)CCC2(C)C1Cc1c(OC)oc(CO)c(C(=O)OC)c1=O (stereo not shown) [Compound 13]; 1.037
C=C1CCC2C(C)(CC(=O)C=C(C)C)C(O)CCC2(C)C1Cc1c(OC)oc(CO)c(C)c1=O (stereo not shown) [Compound 19]; 3.626
C=C1CCC2C(C)(CCC=C(C)C)C(=O)CCC2(C)C1Cc1c(O)c(C)c(C)oc1=O (stereo not shown) [Compound 8]; 2.194

Read the next record carefully.
// query Given the entry C=C1CCC2C(C)(CCC=C(C)C)C(O)CCC2(C)C1Cc1c(OC)oc(C)c(C)c1=O (stereo not shown) [Compound 15, viridoxin A hydrolysate] , what Th-T fluorescence, mean of three wells was observed with Aβ42 (Homo sapiens)?
// result 3.314

----------
Target: Aβ42 (Homo sapiens, UniProt P05067)
Test: Th-T (thioflavin-T) assay of Aβ42 aggregation
Format: biochemical
Settings: column suffix _20; reading M11
Threshold 0.6. Th-T assay signal, mean of three wells (Fig. 7a) below it: true (1). Th-T assay signal, mean of three wells (Fig. 7a) at it or above: false (0).

# example entries with known answers
C=C1CC[C@@H]2[C@](C)(CC[C@H]3O[C@H](C=C(C)C)C[C@@]23C)[C@@H]1Cc1c(OC)oc(CO)c(C(=O)OC)c1=O; true (1)
C=C1CCC2C(C)(CCC=C(C)C)C(O)CCC2(C)C1Cc1c(OC)oc(CO)c(C)c1=O (centres unmarked); false (0)
C=C1CCC2C(C)(CCC=C(C)C)C(O)CCC2(C)C1Cc1c(OC)oc(CO)c(C(=O)OC)c1=O (centres unmarked); true (1)

Please examine the following record next.
// query Report whether reported Th-T assay signal, mean of three wells (Fig. 7a) is lower than 0.6 (strictly) for C=C1CCC2C(C)(CCC=C(C)C)C(O)CCC2(C)C1Cc1c(OC)oc(C)c(C(=O)OC)c1=O (centres unmarked)
// result true (1)
